# target.system: cynomolgus monkey CD3 E&D complex protein (Sino Biological Inc., CT032-00323H) (cynomolgus monkey) (UniProt Q95LI5)
# Sequence (Q95LI5 22-117, chain 1 of 2): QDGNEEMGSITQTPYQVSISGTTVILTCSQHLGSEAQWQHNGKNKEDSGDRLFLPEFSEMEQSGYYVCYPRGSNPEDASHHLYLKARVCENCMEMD
# Sequence (Q95LI8 22-105, chain 2 of 2, further chain): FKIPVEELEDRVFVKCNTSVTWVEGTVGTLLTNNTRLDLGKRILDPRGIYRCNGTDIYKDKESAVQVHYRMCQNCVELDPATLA
# protocol.details: SPR, antigen on chip
log10 of koff: recorded values
Kindly note that the scale is log10 and the underlying koff is in s⁻¹.

// below: answered binders
{"columns": ["binder", "recorded.result"],
 "data": [
  ["SGN70-sp34.87HL (bispecific antibody, part only; not given: anti-CD70 Fab arm and Fc, not shown: another chain or arm of the molecule; a dimerising Fc or GST) scFv: EVQLVESGGGLVQPGGSLKLSCAASGFTFNTYAMNWVRQASGKGLEWVGRIRSKYNNYATYYADSVKDRFTISRDDSKSTLYLQMNSLKTEDTAVYYCARHYNFGQSYVSWFAYWGQGTTVTVSSGGGGSGGGGSGGGGSGGGGSQAVVTQEPSLTVSPGGTVTLTCRSSTGAVTTSNYANWVQQKPGQAPRGLIGGTNKRAPGVPARFSGSLLGDKAALTLLGAQPEDEAEYYCALWYSNLWVFGQGTKLTVL", -0.71],
  ["SGN70-sp34.97LH (bispecific antibody, part only; not given: anti-CD70 Fab arm and Fc, not shown: another chain or arm of the molecule; a dimerising Fc or GST) scFv: QAVVTQEPSLTVSPGGTVTLTCRSSTGAVTTSNYANWVQQKPGQAPRGLIGGTNKRAPGVPARFSGSLLGDKAALTLLGAQPEDEAEYYCALWYSNLWVFGQGTKLTVLGGGGSGGGGSGGGGSGGGGSEVQLVESGGGLVQPGGSLKLSCAASGFTFNTYAMNWVRQASGKGLEWVGRIRSKAGGYATYYADSVKDRFTISRDDSKSTLYLQMNSLKTEDTAVYYCARHGNFGQSYVSWFAYWGQGTTVTVSS", -0.48],
  ["SGN70-sp34.24LH (bispecific antibody, part only; not given: anti-CD70 Fab arm and Fc, not shown: another chain or arm of the molecule; a dimerising Fc or GST; large carriers; small tags and cut ends) scFv: QAVVTQEPSLTVSPGGTVTLTCRSSTGAVTTSNYANWVQQKPGQAPRGLIGGTNKRAPGVPARFSGSLLGDKAALTLLGAQPEDEAEYYCALWYSNLWVFGQGTKLTVLGGGGSGGGGSGGGGSGGGGSEVQLVESGGGLVQPGGSLKLSCAASGFTFNTYAMNWVRQASGKGLEWVGRIRSKYNNYATYYADSVKDRFTISRDDSKSTLYLQMNSLKTEDTAVYYCARHGNFGQSYVSWFAYWGQGTTVTVSS", -1.80],
  ["SGN70-sp34.80LH (bispecific antibody, part only; not given: anti-CD70 Fab arm and Fc, not shown: another chain or arm of the molecule; a dimerising Fc or GST) scFv: QAVVTQEPSLTVSPGGTVTLTCRSSTGAVTTSNYANWVQQKPGQAPRGLIGGTNKRAPGVPARFSGSLLGDKAALTLLGAQPEDEAEYYCALWYSNLWVFGQGTKLTVLGGGGSGGGGSGGGGSGGGGSEVQLVESGGGLVQPGGSLKLSCAASGFTFNTAAMNWVRQASGKGLEWVGRIRSKYNNYATYYADSVKDRFTISRDDSKSTLYLQMNSLKTEDTAVYYCARHGNFGQSYVSWFAYWGQGTTVTVSS", -0.13],
  ["SGN70-sp34.99LH (bispecific antibody, part only; not given: anti-CD70 Fab arm and Fc, not shown: another chain or arm of the molecule; a dimerising Fc or GST) scFv: QAVVTQEPSLTVSPGGTVTLTCRSSTGAVTTSNYANWVQQKPGQAPRGLIGGTNKRAPGVPARFSGSLLGDKAALTLLGAQPEDEAEYYCALWYSNLWVFGQGTKLTVLGGGGSGGGGSGGGGSGGGGSEVQLVESGGGLVQPGGSLKLSCAASGFTFNTYAMNWVRQASGKGLEWVGRIRSKYNNYATYYADSVKDRFTISRDDSKSTLYLQMNSLKTEDTAVYYCARHGNAYQSYVSWFAYWGQGTTVTVSS", -0.66]
]}

Here is the next item to consider.
Tell me the measured log10 of koff of SGN70-sp34.97HL (bispecific antibody, part only; not given: anti-CD70 Fab arm and Fc, not shown: another chain or arm of the molecule; a dimerising Fc or GST) scFv: EVQLVESGGGLVQPGGSLKLSCAASGFTFNTYAMNWVRQASGKGLEWVGRIRSKAGGYATYYADSVKDRFTISRDDSKSTLYLQMNSLKTEDTAVYYCARHGNFGQSYVSWFAYWGQGTTVTVSSGGGGSGGGGSGGGGSGGGGSQAVVTQEPSLTVSPGGTVTLTCRSSTGAVTTSNYANWVQQKPGQAPRGLIGGTNKRAPGVPARFSGSLLGDKAALTLLGAQPEDEAEYYCALWYSNLWVFGQGTKLTVL , please.
-0.15
